Listed next: entries and their corresponding MIC90.
Tested on: Prevotella bivia
Experiment: Antimicrobial activity against Prevotella bivia by Wadsworth agar dilution method
Assay type: functional

Below are worked cases with known answers.
INSERT INTO measurements (compound, endpoint_result) VALUES
  ('NC[C@@H]1O[C@H](O[C@H]2[C@@H](O)[C@H](O[C@@H]3[C@@H](O)[C@H](N)C[C@H](N)[C@H]3O[C@H]3O[C@H](CN)[C@@H](O)[C@H](O)[C@H]3N)O[C@@H]2CO)[C@H](N)[C@@H](O)[C@@H]1O', '1020 µg/mL'),
  ('CO[C@H]1/C=C/O[C@@]2(C)Oc3c(C)c(O)c4c(O)c(c5c(nc6cc(C)ccn65)c4c3C2=O)NC(=O)/C(C)=C\C=C\[C@H](C)[C@H](O)[C@@H](C)[C@@H](O)[C@@H](C)[C@H](OC(C)=O)[C@@H]1C', '0.5 µg/mL'),
  ('CC(=O)Oc1ccccc1C(=O)Nc1ncc([N+](=O)[O-])s1 [NITAZOXANIDE]', '8 µg/mL');

Proceeding to the next compound to report its MIC90.
Looking for the measured MIC90 of "CN[C@H](CC(C)C)C(=O)N[C@H]1C(=O)N[C@@H](CC(N)=O)C(=O)N[C@H]2C(=O)N[C@H]3C(=O)N[C@H](C(=O)N[C@H](C(=O)O)c4cc(O)cc(O)c4-c4cc3ccc4O)[C@H](O)c3ccc(c(Cl)c3)Oc3cc2cc(c3O[C@@H]2O[C@H](CO)[C@@H](O)[C@H](O)[C@H]2O[C@H]2C[C@](C)(N)[C@H](O)[C@H](C)O2)Oc2ccc(cc2Cl)[C@H]1O" , can you help? 256 µg/mL

* * *

Test system: Desulfovibrio fairfieldensis
Experiment: Antimicrobial activity against Desulfovibrio fairfieldensis by Wadsworth agar dilution method
Format: functional
Listed next: entries and their corresponding MIC90.

Looking for the measured MIC90 of CN[C@H](CC(C)C)C(=O)N[C@H]1C(=O)N[C@@H](CC(N)=O)C(=O)N[C@H]2C(=O)N[C@H]3C(=O)N[C@H](C(=O)N[C@H](C(=O)O)c4cc(O)cc(O)c4-c4cc3ccc4O)[C@H](O)c3ccc(c(Cl)c3)Oc3cc2cc(c3O[C@@H]2O[C@H](CO)[C@@H](O)[C@H](O)[C@H]2O[C@H]2C[C@](C)(N)[C@H](O)[C@H](C)O2)Oc2ccc(cc2Cl)[C@H]1O [VANCOMYCIN] , can you help? > 1020 µg/mL

Another molecule to check: CO[C@H]1/C=C/O[C@@]2(C)Oc3c(C)c(O)c4c(O)c(c5c(nc6cc(C)ccn65)c4c3C2=O)NC(=O)/C(C)=C\C=C\[C@H](C)[C@H](O)[C@@H](C)[C@@H](O)[C@@H](C)[C@H](OC(C)=O)[C@@H]1C [RIFAXIMIN] 332 µg/mL

Another molecule to check: NC[C@@H]1O[C@H](O[C@H]2[C@@H](O)[C@H](O[C@@H]3[C@@H](O)[C@H](N)C[C@H](N)[C@H]3O[C@H]3O[C@H](CN)[C@@H](O)[C@H](O)[C@H]3N)O[C@@H]2CO)[C@H](N)[C@@H](O)[C@@H]1O [FRAMYCETIN] 1020 µg/mL

Another molecule to check: CC(=O)Oc1ccccc1C(=O)Nc1ncc([N+](=O)[O-])s1 [NITAZOXANIDE] 4 µg/mL

* * *

Tested on: Desulfovibrio desulfuricans
Assay: Antimicrobial activity against Desulfovibrio desulfuricans by Wadsworth agar dilution method
Type: functional
Listed next: entries and their corresponding MIC90.
Quick reminder: number only, in µg/mL, skip the unit.

INSERT INTO measurements (compound, assay_metric, unit, endpoint_result) VALUES
  ('CC(=O)Oc1ccccc1C(=O)Nc1ncc([N+](=O)[O-])s1 [NITAZOXANIDE]', 'MIC90', 'µg/mL', 4);

Proceeding to the next compound to report its MIC90.
Looking for the measured MIC90 of "CO[C@H]1/C=C/O[C@@]2(C)Oc3c(C)c(O)c4c(O)c(c5c(nc6cc(C)ccn65)c4c3C2=O)NC(=O)/C(C)=C\C=C\[C@H](C)[C@H](O)[C@@H](C)[C@@H](O)[C@@H](C)[C@H](OC(C)=O)[C@@H]1C" , can you help? 64

* * *

Test system: Clostridium bolteae
Experiment: Antimicrobial activity against Clostridium bolteae by Wadsworth agar dilution method
Format: functional
Settings: Enterocloster bolteae
assay_metric: MIC90 (µg/mL)
Quick reminder: number only, in µg/mL, skip the unit.

INSERT INTO assay_data (compound, measured_on, endpoint_result) VALUES
  ('NC[C@@H]1O[C@H](O[C@H]2[C@@H](O)[C@H](O[C@@H]3[C@@H](O)[C@H](N)C[C@H](N)[C@H]3O[C@H]3O[C@H](CN)[C@@H](O)[C@H](O)[C@H]3N)O[C@@H]2CO)[C@H](N)[C@@H](O)[C@@H]1O [FRAMYCETIN]', 'Clostridium bolteae', 1020),
  ('CN[C@H](CC(C)C)C(=O)N[C@H]1C(=O)N[C@@H](CC(N)=O)C(=O)N[C@H]2C(=O)N[C@H]3C(=O)N[C@H](C(=O)N[C@H](C(=O)O)c4cc(O)cc(O)c4-c4cc3ccc4O)[C@H](O)c3ccc(c(Cl)c3)Oc3cc2cc(c3O[C@@H]2O[C@H](CO)[C@@H](O)[C@H](O)[C@H]2O[C@H]2C[C@](C)(N)[C@H](O)[C@H](C)O2)Oc2ccc(cc2Cl)[C@H]1O [VANCOMYCIN]', 'Clostridium bolteae', 4);

Under Clostridium bolteae: MIC90 value of CC(=O)Oc1ccccc1C(=O)Nc1ncc([N+](=O)[O-])s1 [NITAZOXANIDE] ? 4

* * *

Tested on: Bifidobacterium dentium
Assay: Antimicrobial activity against Bifidobacterium dentium by Wadsworth agar dilution method
Format: functional
Listed next: entries and their corresponding MIC50.
Quick reminder: number only, in µg/mL, skip the unit.

Below are worked cases with known answers.
INSERT INTO measurements (compound, assay_metric, endpoint_result) VALUES
  ('NC[C@@H]1O[C@H](O[C@H]2[C@@H](O)[C@H](O[C@@H]3[C@@H](O)[C@H](N)C[C@H](N)[C@H]3O[C@H]3O[C@H](CN)[C@@H](O)[C@H](O)[C@H]3N)O[C@@H]2CO)[C@H](N)[C@@H](O)[C@@H]1O', 'MIC50', 128),
  ('CC(=O)Oc1ccccc1C(=O)Nc1ncc([N+](=O)[O-])s1 [NITAZOXANIDE]', 'MIC50', 2),
  ('CN[C@H](CC(C)C)C(=O)N[C@H]1C(=O)N[C@@H](CC(N)=O)C(=O)N[C@H]2C(=O)N[C@H]3C(=O)N[C@H](C(=O)N[C@H](C(=O)O)c4cc(O)cc(O)c4-c4cc3ccc4O)[C@H](O)c3ccc(c(Cl)c3)Oc3cc2cc(c3O[C@@H]2O[C@H](CO)[C@@H](O)[C@H](O)[C@H]2O[C@H]2C[C@](C)(N)[C@H](O)[C@H](C)O2)Oc2ccc(cc2Cl)[C@H]1O', 'MIC50', 1);

Looking for the measured MIC50 of "CO[C@H]1/C=C/O[C@@]2(C)Oc3c(C)c(O)c4c(O)c(c5c(nc6cc(C)ccn65)c4c3C2=O)NC(=O)/C(C)=C\C=C\[C@H](C)[C@H](O)[C@@H](C)[C@@H](O)[C@@H](C)[C@H](OC(C)=O)[C@@H]1C" , can you help? 0.5
